B1: glmS ribozyme (parent)
chain: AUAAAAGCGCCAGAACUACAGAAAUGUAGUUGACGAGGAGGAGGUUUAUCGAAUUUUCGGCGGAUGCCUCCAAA

Variants of: B1
Assay procedure: self-cleavage kobs at 2500 uM GlcN6P; higher = faster cleavage; RNA array
Condition description: with glucosamine-6-phosphate
Fewer inactive variants are shown than the library holds.
Reported endpoint: self-cleavage kobs at 2500 uM GlcN6P (s⁻¹)
Write it as a number; the unit s⁻¹ goes unstated.

# self-cleavage kobs at 2500 uM GlcN6P (variant: AUAAAAGCGCCAGAAGUACAGAAAUGUAGUUGACGAGGAGGAGGUUGAUCGAAUUUUCGGCGGAUGCCUCCAAA [C16G U47G] ) is 0.000604

# self-cleavage kobs at 2500 uM GlcN6P (variant: AUAAAAGCGCCAGAACUACAGAAAUGUAGUCAACGAGGAGGAGGUUUAUCGAAUUUUCGGCGGAUGCCUCCAAA [U31C G32A] ) is 0.000604

# self-cleavage kobs at 2500 uM GlcN6P (variant: AUAAAAGCGCCAGAAAUACAGAAAUGUAAUUGACGAGGAGGAGGUUUAUCGAAUUUUCGGCGGAUGCCUCCAAA [C16A G29A] ) is 0.00127

# self-cleavage kobs at 2500 uM GlcN6P (variant: AUAAAAGCGCAAGAACUACAGAAAUGUAGUUGACGAGGAGGGGGUUUAUCGAAUUAUCGGCGGAUGCCUCCAAA [C11A A42G U56A] ) is 2.82e-05

# self-cleavage kobs at 2500 uM GlcN6P (variant: AUAAAAGCGCCAGAACUACAGAAAUGUAGUUGACGAGGACGAGGUUUAUCGAAUUCUCGGCGGAUGCCUCCAAA [G40C U56C] ) is 4.67e-05

# self-cleavage kobs at 2500 uM GlcN6P (variant: AUAAAAGCGCCAGAACUACAGAAAUGUAGUUGACGAGGAGGAGGUUUAUCGAAUUUUCGGCGGGUGACUCCAAA [A64G C67A] ) is 0.0018

# self-cleavage kobs at 2500 uM GlcN6P (variant: AUAAAAGCGCCAGUACUACAGAAAUGUAGUUGACGAGGGGGAGGUUUAUCGAAUUUUCGGCGGAUGCCUCCAAA [A14U A39G] ) is 0.00644

# self-cleavage kobs at 2500 uM GlcN6P (variant: AUAAAAGCGCCUGAACUACAGAAAUGUAGUUGACGAGGUGGAGGUUUUUCGAAUUUUCGGCGGAUGCCUCCAAA [A12U A39U A48U] ) is 0.000147

# self-cleavage kobs at 2500 uM GlcN6P (variant: AUAAAAGCGCCAGAACUACAGAAAUGUAGUCGACGAGGAGGAGGUUUAUCGAAUUUUCGGCGGAUGCCACCAAA [U31C U69A] ) is 5.91e-05

# self-cleavage kobs at 2500 uM GlcN6P (variant: AUAAAAGCGCCAGAACUACAGAAAUGUAGUUGACGAGGAGGAGGUUGAUAGAAUUUUCGGCGGCUGCCUCCAAA [U47G C50A A64C] ) is 0.000126

# self-cleavage kobs at 2500 uM GlcN6P (variant: AUAAAAGCGCCAGAUCUACAGAAAUGUAGUUGACGAGGAGGAGGUUUAUCGAAUUUUCGGCGGGUGCCUCCAAA [A15U A64G] ) is 0.00336

# self-cleavage kobs at 2500 uM GlcN6P (variant: AUAAAAGCGCCAGAACUACAGAAAUGUAGUCGACGAGGAGGAGGUUUAUCGAAUUUUCGGCGGAUGACUCCAAA [U31C C67A] ) is 0.000603

# self-cleavage kobs at 2500 uM GlcN6P (variant: AUAAAAGCGCCAGAACUACAGAAAUGUAGUUGACGAGGAGGAGGUUUAUCGAAUUUUUGGCGGAUGCCUCCAAA [C58U] ) is 3.96e-05

# self-cleavage kobs at 2500 uM GlcN6P (variant: AUAAAAGCGCCAAAACUACAGAAAUGUAGUUGACGAGGAGGAGGGUUAUCGAAUUUUCGGCGGAUGCCUCCAAA [G13A U45G] ) is 3.13e-05

These measurements were taken from the supplement of paper PMC7125110.
